Hello, the source for this data is PubChem BioAssay AID2599, in case you need it.

Target: Sentrin-specific protease 6 (Homo sapiens) (UniProt Q9GZR1)
Sequence (Q9GZR1 628-1112 limits assumed): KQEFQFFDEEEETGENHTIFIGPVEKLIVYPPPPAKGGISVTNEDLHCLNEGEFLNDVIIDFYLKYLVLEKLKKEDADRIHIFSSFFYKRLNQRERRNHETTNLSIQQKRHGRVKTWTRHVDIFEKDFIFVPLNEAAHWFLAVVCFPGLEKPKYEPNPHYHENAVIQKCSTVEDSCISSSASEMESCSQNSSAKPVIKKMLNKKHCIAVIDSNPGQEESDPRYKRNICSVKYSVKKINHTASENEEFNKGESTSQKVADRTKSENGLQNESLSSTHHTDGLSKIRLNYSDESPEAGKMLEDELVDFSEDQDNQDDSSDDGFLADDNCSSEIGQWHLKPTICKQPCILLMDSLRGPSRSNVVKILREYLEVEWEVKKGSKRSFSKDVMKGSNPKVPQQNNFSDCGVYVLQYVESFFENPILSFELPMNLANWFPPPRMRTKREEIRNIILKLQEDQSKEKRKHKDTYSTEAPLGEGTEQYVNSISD
Test: SENP6 protease inhibitors, primary screen, biochemical, luminescence, uHTS (AID 2599);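 note: plate controls were DMSO wells with enzyme for no effect and DMSO wells lacking enzyme for full effect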
Details: Recombinant SENP6 catalytic domain, aminoluciferin luminescence; at 10 µM; active compounds read high
The campaign covered roughly 330,000 compounds. About 5,800 (1.8%) were called active. This excerpt belongs to a sample that is enriched for actives.

| compound | inhibition / % |
| --- | --- |
| CCOC(=O)CSC1=N/C(=C/c2ccc(-n3cncn3)cc2)C(=O)N1C(C)=O | 4.91 |
| COc1ccccc1-c1nnc(-c2ccc(F)cc2)o1 | 40.7 |
| OC(c1nnc(-c2ccccc2)o1)c1cccs1 (centres undefined) | -10.9 |
| CC(C)n1c(NCc2c[nH]c3ccccc23)nc2ccccc21 | 9.71 |
| O=C(N/N=C\c1cccnc1)c1cc(-c2ccccc2)nc2c(Cl)cccc12 | -10.9 |
| Brc1ccc(-c2noc(-c3ccccc3)n2)o1 | -29.7 |
| Nc1ccc(-c2nnc(-c3ccccc3)o2)cc1 | 61.5 |
| CCCn1nnnc1NCc1ccc(CC)cc1 | -6.18 |
| O=C(N/N=C/c1cccnc1)c1cc2ccccc2cc1O | 54.6 |
| Cc1ccc(O)c(CNc2nc3ccccc3[nH]2)c1 | -16.5 |
| Brc1ccc(-c2nnc(-c3ccccc3)o2)o1 | 67.5 |
| N=c1oc2ccccc2cc1C(=O)NCc1ccccc1 | -3.97 |
| Cc1ccc(/C=N/NC(=O)c2cc3ccccc3cc2O)o1 | 73.7 |
| O=C(CN1CCN(c2cccc(Cl)c2)CC1)Nc1ccc(S(=O)(=O)N2CCOCC2)cc1 | 5.09 |
| COc1ccc(NC(=O)C2C3C=CC(C3)C2C(=O)NCc2ccccn2)c(OC)c1 (centres undefined) | 10.4 |
| Cn1cccc1C(=O)NC(=O)COC(=O)Cc1coc2ccc3ccccc3c12 | -4.09 |
| CC(NC(=O)c1cccc(S(=O)(=O)N2CCc3ccccc3C2)c1)c1ccco1 (centres undefined) | -17.8 |
| COc1ccc(S(=O)(=O)NCC(=O)NC2CC2)cc1OC | -8.69 |
| O=C(Nc1cccc(NC(=O)c2cccc(F)c2)c1)c1ccccc1 | -18.8 |
| O=C(Nc1ccccc1)O/N=C1/CCCc2occc21 | -12.8 |
| CSc1ccccc1-c1nnc(-c2ccc(Cl)cc2)o1 | 26.3 |
| O=C(N/N=C/c1cccnc1)c1ccc(NC(=O)c2ccc(F)cc2)cc1 | -21.5 |
| Nc1ccc(-c2nnc(-c3ccc(-c4ccccc4)cc3)o2)cc1 | 53.4 |
| O=C(Nc1ccc(C(=O)O)c(O)c1)c1ccccc1 | 83.4 |

###

Biological target: Sentrin-specific protease 6 (Homo sapiens) (UniProt Q9GZR1)
Test: SENP6 protease inhibitors, primary screen, biochemical, luminescence, uHTS (AID 2599);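 note: plate controls were DMSO wells with enzyme for no effect and DMSO wells lacking enzyme for full effect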
Conditions: Recombinant SENP6 catalytic domain, aminoluciferin luminescence; at 10 µM
Hit rate of the full screen: of about 330,000 compounds, about 5,800 (1.8%) were called active.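 Rule for the calls: active = inhibition above about 50% at the single tested dose (limit read from the data); inactive = the rest.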 What follows is part of a selection rich in actives, with near analogues and random picks from the rest.
Outcomes: active, inactive

| compound | assignedCategory |
| --- | --- |
| O=C(NCCS(=O)(=O)N1CCN(c2ccccc2)CC1)c1ccco1 | inactive |
| CCOC(=O)c1ccc(Nc2cc(C)nc3nc(C)nn23)cc1 | inactive |
| CN(CC(=O)Nc1ccc(Cl)cc1)C(=O)CNC(=O)c1ccc2ccccc2c1 | active |
| OCCC#Cc1ccc(CN2CCN(Cc3ccsc3)C(CCO)C2)cc1 (stereo unspecified) | inactive |
| Cc1cc(N=Nc2ccc3ccccc3c2)ccc1O | active |
| O=C(CCNC(=O)c1ccccc1)Nc1nc2ccccc2s1 | inactive |
| Nn1c(Cc2cccc3ccccc23)nnc1SCC(=O)N1CC(=O)Nc2ccccc21 | inactive |
| Cc1ccc(C(=O)N/C(=C/c2cccnc2)C(=O)O)cc1 | inactive |
| O=C(O)c1ccccc1C(=O)Nc1nc(-c2ccccc2)cs1 | inactive |
| O=C1CCC(=O)N(c2ccccc2)N1 | inactive |
| Cc1c(C(=O)NCCN(C)C)oc2ccc(S(=O)(=O)N3CCCC3)cc12 | inactive |
| CC[N+](C)(CC)CCC[n+]1c(-c2ccccc2)c2cc(N)ccc2c2ccc(N)cc21 | active |
| C/C(=N\NC(=O)c1ccc(C)cc1)C1C(=O)c2ccccc2C1=O | active |
| COc1ccc(S(=O)(=O)N2CCC(C(=O)NCCC(=O)NCc3cccc(OC)c3)CC2)cc1 | inactive |
| COc1ccc([N+](=O)[O-])cc1NC(=O)CCc1ccccc1 | inactive |
| CC(=O)Nc1nc(N(C)C)nc(N(C)C)n1 | inactive |
| Cc1ccc(F)c(NC(=O)CCc2ccccc2)c1 | active |
| Cc1cccc(Nc2nc3c(S(=O)(=O)c4ccccc4)nnn3c3ccccc23)c1C | inactive |
| CCCc1cc(C(=O)Nc2ccc(C(=O)OC)cc2)cs1 | inactive |
| N/C(=N\OC(=O)c1cc(-c2ccccc2)nc2ccccc12)c1ccncc1 | inactive |
| CN(CC(=O)Nc1ccc(Cl)cc1)C(=O)c1ccc(COc2ccccc2)cc1 | inactive |
| CCCCC(CC)C(=O)Nc1ccc(Cl)cn1 (stereo unspecified) | inactive |
| COc1ccc(/C=N/NC(=O)c2ccncc2)cc1CN1CCCc2ccccc21 | inactive |
| Cc1ccc(C)c(Cn2cnc3c(oc4ccccc43)c2=O)c1 | inactive |
| CCCC(=O)N(CCN1CCOCC1)c1nc2ccc(OCC)cc2s1 | inactive |
| O=[N+]([O-])c1c(NCCO)cc(Sc2nc3ccccc3s2)c2nonc12 | active |
| COc1ccc(C(=O)NC(=S)Nc2ccc(Cl)cn2)cc1OC | inactive |
| C/C(=N\NC(=O)CNC(=O)C(c1ccccc1)c1ccccc1)c1ccc(C)cc1 | inactive |
| Cc1nc(NC(=O)c2ccc3c(c2)OCCO3)ccc1Br | active |
| C/C(=N/NC(=O)CCc1ccccc1)c1ccco1 | inactive |
| COc1ccc2cc(C(=O)C3CCCN(C(=O)c4sc(C)nc4C)C3)ccc2c1 (stereo unspecified) | inactive |
| CCOc1ccc2nc(C(=O)N3CCCC(C)C3)sc2c1 (stereo unspecified) | active |
| CN(CC(=O)Nc1ccc(Cl)cc1)CC(=O)Nc1cccc2ccccc12 | inactive |
| O=C(CCC(=O)c1cccs1)Nc1nc2ccccc2s1 | inactive |
| CC(OC(=O)CCc1nc(=O)c2ccccc2n1C)C(=O)NCc1ccc2c(c1)OCO2 (stereo unspecified) | inactive |
| O=C(C(=O)N1CCc2ccccc2C1)c1c[nH]c2ccccc12 | inactive |
| CCN(C(=O)CSc1cccc[n+]1[O-])c1ccccc1 | inactive |
| c1ccc(-n2nnnc2NC2CCCCCC2)cc1 | inactive |
| Cc1cccc(/C(N)=N/OC(=O)c2ccccc2Cl)c1 | active |
| Cn1cccc1C(=O)OCC(=O)c1ccc(Br)s1 | active |
| Cc1nc(NC(=O)c2cccc(Cl)c2)sc1-c1csc(Nc2cccc(Cl)c2)n1 | inactive |
| Cc1cccc(OCC(=O)Nc2ccc(C(=O)O)cc2NC(=O)COc2cccc(C)c2)c1 | inactive |
| COc1c(Cl)cc(C(=O)Nc2ccc(Cl)cn2)cc1Cl | inactive |
| Cc1ccc(NC(=O)C2CC2)cc1S(=O)(=O)N1CCOCC1 | inactive |
| Cc1cccc(OCCC(=O)Nc2ccccc2C(N)=O)c1 | inactive |
| CSCC[C@H](NC(=O)N1CCn2c1nc1ccccc12)C(=O)NC1CCCCC1 | inactive |
